# subjectOfTest: T1, CaBdf1 BD1 (GST-tagged, wild-type) (Candida albicans (strain SC5314 / ATCC …, UniProt Q5A4W8))
# T1 chain: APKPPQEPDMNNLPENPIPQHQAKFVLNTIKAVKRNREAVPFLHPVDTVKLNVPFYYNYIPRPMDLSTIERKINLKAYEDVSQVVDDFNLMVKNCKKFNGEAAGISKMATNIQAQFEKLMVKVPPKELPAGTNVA
# measurementNotes: histone peptide array (Active Motif MODified), 1 uM GST-tagged bromodomain, anti-GST detection, normalized mean intensity
Square brackets hold non-standard residues; d marks the D form. Ends that are not written are not given here. Arg(Me2a) = CN(C)C(=N)NCCC[C@H](N)C(=O)O; pT = C[C@@H](OP(=O)(O)O)[C@H](N)C(=O)O; pS = N[C@@H](COP(=O)(O)O)C(=O)O; Lys(Me) = CNCCCC[C@H](N)C(=O)O; me2a = not defined here

- binder: "ARTK(Me)QTAR(me2a)K(Me)STGGKAPRKQ (reading uncertain)"
  binding score: 0.00508
- binder: "ARTKQTA[Arg(Me2a)][Lys(Me)]S[pT]GGKAPRKQ"
  binding score: 0.00471
- binder: "PDPAKSAPAPKKG[pS]KKAVT"
  binding score: 0.00326
- binder: "PDPAK(Ac)SAPAPKK(Ac)GSKKAVT"
  binding score: 0.017
- binder: "[pS]GRGK(Ac)QGGK(Ac)ARAK(Ac)AKSRSS [H2a 1-19]"
  binding score: 0.0515
- binder: "ARTKQTARKSTGGKAPRKQ (A Rme2s T Kme2 Q T A Rme2s Kac S T G G K A P R K Q)"
  binding score: 0.0239

Where do the numbers come from? From paper PMC5454392.
